# Tested on: M14 melanoma
# measurementDescription: NCI-60 one-dose screen, 48 h (100 = growth as untreated, 0 = no growth, -100 = all killed)
# experimentalParameters: 10 µM unless noted
Compounds without any hit were thinned out: in the full panel of roughly 83,000, 20% have a hit.
experimentalEndpoint: growth (%)

{"columns": ["compound", "unitSpec", "valueObserved"],
 "data": [
  ["N[C@H]1CCC[C@@H]1NCCCCN1C(=O)c2cccc3cccc(c23)C1=O", "%", 53.1],
  ["N#C/C(=C\\c1ccc(Br)cc1)n1nnc2cc(Cl)c(Cl)cc21", "%", 31.3],
  ["O=C(Nc1ccccc1Cl)OCCN1CCOCC1", "%", 90.7],
  ["CN(C)c1ccc2cc(-c3ccc(Cl)c(Cl)c3)c(N)nc2c1", "%", 25.5],
  ["Cl.Fc1c[c-]c(-c2ccccn2)c(F)c1.[Pt].c1ccc(P(c2ccccc2)C([PH+](c2ccccc2)c2ccccc2)[PH+](c2ccccc2)c2ccccc2)cc1", "%", 18.7],
  ["O=C(CCl)N1c2cccc3cccc(c23)N(C(=O)CCl)C1c1cn(-c2ccccc2)nc1-c1cccc([N+](=O)[O-])c1", "%", 84.8],
  ["C=C1c2c(C)nn(-c3ccc(NC(C)=O)cc3)c2N(C)C23CC1C1(C)c4c(C)nn(-c5ccc(NC(C)=O)cc5)c4N(C)C(C)(CC12)C3 (centres undefined)", "%", 19.6],
  ["C[C@@H]1CC[C@@H]2[C@@H]1[C@H](OC(=O)c1ccc3ccccc3c1)[C@]1(C3CCCCC3)C[C@@H](OC(=O)CO)[C@@]2(C)O1", "%", 61.4],
  ["C=C1C(=O)O[C@H]2[C@H]1CC/C(COC(=O)/C=C/C(=O)NCc1ccc(Cn3c(=O)sn(-c4ccccc4)c3=O)cc1)=C\\CC[C@@]1(C)O[C@@H]21", "%", -36],
  ["Cc1ccc(/C=C(\\C#N)n2nnc3cc(Cl)c(Cl)cc32)cc1", "%", -23],
  ["N#C/C(=C\\c1ccc2c(c1)OCO2)n1nnc2ccccc21", "%", 2.76],
  ["CNCCNc1nc2ccccc2c2c(=O)c3cc(F)ccc3oc12", "%", 86.8],
  ["COc1cc2c(cc1OC)-c1ccc3cc4c(cc3c1N(CCCn1ccnc1)C2)OCO4", "%", 27.1],
  ["O=[N+]([O-])c1ccc(-c2cc3c(Nc4ccc(Cl)c(C(F)(F)F)c4)ncnc3s2)cc1", "%", 19.4],
  ["COc1cc2c(=O)n(CCCn3ccnc3)c3c4cc5c(cc4ccc3c2cc1OC)OCO5", "%", -4.48],
  ["O=C1C2=C(CCN(Cc3ccccc3)C2)N2CCN=C2N1Cc1ccc(F)cc1F", "%", 35.9],
  ["CCN(CC)CCOC(=O)N1c2ccccc2Sc2ccccc21", "%", 93.4],
  ["N#Cc1c(-c2ccccc2)nc(SCC2CO2)nc1N1CCOCC1 (centres undefined)", "%", 84],
  ["COC(=O)Nc1nc2ccc(C(=O)C3CC3)cc2[nH]1", "%", 7.18]
]}
